Below, each of the molecules is paired with its reported inhibition at 0.01 µM value.
# EXPERIMENTAL_TARGET: 17β-HSD3 (Homo sapiens, UniProt P37058)
# Construct: expressed in transfected cells; host or cells: HEK-293 (homogenate)
# ASSAY: Inhibition of 17β-HSD3 in homogenated HEK-293 cells
# Format: biochemical
# SETTINGS: Table 2 (17β-HSD3); [14C]-Δ4-dione 50 nM into [14C]-T, 0.01 μM; read-out: Homo (%) (0.01 μM)
The answer is to be given in %; state only the numeric part.

[[record]]
smiles_representation = "CCN(CC)C[C@@]1(O)CC[C@@]2(C)[C@@H](CC[C@@H]3[C@@H]2CC[C@]2(C)C(=O)CC[C@@H]32)C1"
attribute_measured = "inhibition at 0.01 µM"
assay_result = 0


Looking for the measured inhibition at 0.01 µM of CN1CCN(C[C@@]2(O)CC[C@@]3(C)[C@@H](CC[C@@H]4[C@@H]3CC[C@]3(C)C(=O)CC[C@@H]43)C2)CC1 , can you help?
0

Looking for the measured inhibition at 0.01 µM of CCCCN(CCCC)C[C@@]1(O)CC[C@@]2(C)[C@@H](CC[C@@H]3[C@@H]2CC[C@]2(C)C(=O)CC[C@@H]32)C1 , can you help?
13

Looking for the measured inhibition at 0.01 µM of CN(Cc1ccccc1)C[C@@]1(O)CC[C@@]2(C)[C@@H](CC[C@@H]3[C@@H]2CC[C@]2(C)C(=O)CC[C@@H]32)C1 , can you help?
28

Looking for the measured inhibition at 0.01 µM of CCN(Cc1ccccc1)C[C@@]1(O)CC[C@@]2(C)[C@@H](CC[C@@H]3[C@@H]2CC[C@]2(C)C(=O)CC[C@@H]32)C1 , can you help?
42

Looking for the measured inhibition at 0.01 µM of C[C@]12CC[C@](O)(CN3CCC(N4CCCCC4)CC3)C[C@@H]1CC[C@@H]1[C@@H]2CC[C@]2(C)C(=O)CC[C@@H]12 , can you help?
0

* * *

Below, each of the compounds is paired with its reported inhibition at 0.01 µM value.
# EXPERIMENTAL_TARGET: 17β-HSD3 (Homo sapiens, UniProt P37058)
# Construct: expressed in transfected cells; host or cells: HEK-293 (homogenate)
# Sequence (P37058 1-310): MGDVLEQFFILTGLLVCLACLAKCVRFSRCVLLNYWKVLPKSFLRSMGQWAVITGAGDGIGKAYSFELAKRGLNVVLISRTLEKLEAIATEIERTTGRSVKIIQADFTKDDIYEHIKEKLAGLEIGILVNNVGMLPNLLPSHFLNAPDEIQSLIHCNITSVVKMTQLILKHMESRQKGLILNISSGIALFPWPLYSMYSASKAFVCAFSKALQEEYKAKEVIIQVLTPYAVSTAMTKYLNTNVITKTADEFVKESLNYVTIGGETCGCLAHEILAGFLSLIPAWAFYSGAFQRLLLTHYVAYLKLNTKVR
# ASSAY: Inhibition of 17β-HSD3 in homogenated HEK-293 cells
# Format: biochemical
# SETTINGS: read-out: Homo (%) (0.01 μM), Table 4; 0.01 μM
The answer is to be given in %; state only the numeric part.

Worked cases, answers included:
[[record]]
compound = "Cc1cccc(S(=O)(=O)CCN2C[C@]3(CC[C@@]4(C)[C@@H](CC[C@@H]5[C@@H]4CC[C@]4(C)C(=O)CC[C@@H]54)C3)OC2=O)c1 [Compound 23b]"
experimental_target = "17β-HSD3 (Homo sapiens, UniProt P37058)"
assay_result = 0

[[record]]
compound = "C[C@]12CC[C@@]3(C[C@@H]1CC[C@@H]1[C@@H]2CC[C@]2(C)C(=O)CC[C@@H]12)CN(Cc1ccc(C(F)(F)F)nc1)C(=O)O3 [Compound 17e]"
experimental_target = "17β-HSD3 (Homo sapiens, UniProt P37058)"
assay_result = 3

[[record]]
compound = "C[C@]12CC[C@@]3(C[C@@H]1CC[C@@H]1[C@@H]2CC[C@]2(C)C(=O)CC[C@@H]12)CN(Cc1cc(C(F)(F)F)cc(C(F)(F)F)c1)C(=O)O3 [Compound 17h]"
experimental_target = "17β-HSD3 (Homo sapiens, UniProt P37058)"
assay_result = 12


Looking for the measured inhibition at 0.01 µM of C[C@]12CC[C@@]3(C[C@@H]1CC[C@@H]1[C@@H]2CC[C@]2(C)C(=O)CC[C@@H]12)CN(Cc1ccccc1C(F)(F)F)C(=O)O3 [Compound 17f] , can you help?
17

* * *

Below, each of the compounds is paired with its reported inhibition at 0.1 µM value.
# EXPERIMENTAL_TARGET: 17β-HSD3 (Homo sapiens, UniProt P37058)
# Construct: expressed in transfected cells; host or cells: HEK-293 (homogenate)
# ASSAY: Inhibition of 17β-HSD3 in intact HEK-293 cells
# Type: cell-based
# SETTINGS: HEK293, 1 h, read-out: Intact cells (%) (0.1 μM), Table 4; 0.1 μM
The answer is to be given in %; state only the numeric part.

[[record]]
compound = "C[C@]12CC[C@@]3(C[C@@H]1CC[C@@H]1[C@@H]2CC[C@]2(C)C(=O)CC[C@@H]12)CN(Cc1ccccc1)C(=O)O3 [Compound 17a]"
experimental_target = "17β-HSD3 (Homo sapiens, UniProt P37058)"
attribute_measured = "inhibition at 0.1 µM"
endpoint_unit = "%"
assay_result = 44


Looking for the measured inhibition at 0.1 µM of Cc1cccc(OCCN2C[C@]3(CC[C@@]4(C)[C@@H](CC[C@@H]5[C@@H]4CC[C@]4(C)C(=O)CC[C@@H]54)C3)OC2=O)c1 [Compound 23a] , can you help?
40

Looking for the measured inhibition at 0.1 µM of C[C@]12CC[C@@]3(C[C@@H]1CC[C@@H]1[C@@H]2CC[C@]2(C)C(=O)CC[C@@H]12)CN(CCC(CN1CCOCC1)OC(=O)CCC1CCCC1)C(=O)O3 (stereo partly shown) [Compound 4, reference compound] , can you help?
49

Looking for the measured inhibition at 0.1 µM of C[C@]12CC[C@@]3(C[C@@H]1CC[C@@H]1[C@@H]2CC[C@]2(C)C(=O)CC[C@@H]12)CN(Cc1cccc(C(F)(F)F)c1)C(=O)O3 [Compound 17g] , can you help?
36

* * *

# EXPERIMENTAL_TARGET: 17β-HSD1 (Homo sapiens)
# Construct: endogenous in cells
# Sequence (P14061 whole entry): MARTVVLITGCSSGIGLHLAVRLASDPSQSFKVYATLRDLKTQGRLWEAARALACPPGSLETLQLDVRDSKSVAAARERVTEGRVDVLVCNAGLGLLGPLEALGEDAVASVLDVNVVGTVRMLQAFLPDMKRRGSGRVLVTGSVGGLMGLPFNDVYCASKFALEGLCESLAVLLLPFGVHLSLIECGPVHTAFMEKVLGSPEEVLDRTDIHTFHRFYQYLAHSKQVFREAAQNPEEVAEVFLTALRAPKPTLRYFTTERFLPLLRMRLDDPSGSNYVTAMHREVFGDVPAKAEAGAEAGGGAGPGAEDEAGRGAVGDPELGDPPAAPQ
# ASSAY: Inhibition of 17β-HSD1 in T-47D intact cells (E1 into E2)
# SETTINGS: T-47D intact cells, [14C]-E1 60 nM
ATTRIBUTE_MEASURED: IC50 (µM)
The answer is to be given in µM; state only the numeric part.

So what IC50 did C[C@]12CC[C@@H]3c4ccc(CCBr)cc4CC[C@H]3[C@@H]1C[C@H](Cc1cccc(C(N)=O)c1)[C@@H]2O get with 17β-HSD1 (Homo sapiens)?
0.068

* * *

# EXPERIMENTAL_TARGET: 17β-HSD3 (Homo sapiens, UniProt P37058)
# Construct: expressed in transfected cells; host or cells: HEK-293 (homogenate)
# Sequence (P37058 1-310): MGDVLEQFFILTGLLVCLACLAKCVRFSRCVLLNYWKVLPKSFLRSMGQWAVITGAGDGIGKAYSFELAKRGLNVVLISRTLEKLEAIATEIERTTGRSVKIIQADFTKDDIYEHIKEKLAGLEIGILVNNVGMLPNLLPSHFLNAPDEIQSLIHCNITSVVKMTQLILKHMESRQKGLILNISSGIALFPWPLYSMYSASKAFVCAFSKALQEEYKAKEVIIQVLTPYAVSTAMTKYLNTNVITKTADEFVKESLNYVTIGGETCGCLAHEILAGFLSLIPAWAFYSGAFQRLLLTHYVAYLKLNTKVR
# ASSAY: Inhibition of 17β-HSD3 in homogenated HEK-293 cells
# Assay type: biochemical
# SETTINGS: Table 3; 0.01 μM; read-out: Homo (%) (0.01 μM)
ATTRIBUTE_MEASURED: inhibition at 0.01 µM

Looking for the measured inhibition at 0.01 µM of C[C@]12CC[C@](O)(CN3CCN(Cc4cccc(C(F)(F)F)c4)CC3)C[C@@H]1CC[C@@H]1[C@@H]2CC[C@]2(C)C(=O)CC[C@@H]12 [Compound 10a] , can you help?
51%

Looking for the measured inhibition at 0.01 µM of C[C@]12CC[C@](O)(CN3CCN(Cc4ccc(C(F)(F)F)cc4)CC3)C[C@@H]1CC[C@@H]1[C@@H]2CC[C@]2(C)C(=O)CC[C@@H]12 [Compound 10c] , can you help?
14%

Looking for the measured inhibition at 0.01 µM of C[C@]12CC[C@](O)(CN3CCN(C(=O)c4ccccc4C(F)(F)F)CC3)C[C@@H]1CC[C@@H]1[C@@H]2CC[C@]2(C)C(=O)CC[C@@H]12 [Compound 12c] , can you help?
31%
